test system: murine polyomavirus; test: microbe, parasite or virus in culture; type: cell-based
Measured selectivity index 2PTA2 by item
measurement label: selectivity index 2PTA2

Nc1ncn(C[C@H]2COP(=O)(O)CO2)c(=O)n1 : 13
NC(N)=NC(=O)NC[C@@H](CO)OCP(=O)(O)O : 1
CCCCCCCCCCCCCCCCOCCOP1(=O)CO[C@@H](Cn2cnc(N)nc2=O)CO1 (stereo partly shown) : 33.8

* * *

experiment: in vitro; conditions: human
measurement label: CC50 at 3 days

NC(=NC(=O)NC[C@@H](CO)OCP(=O)(O)O)NC=O.[Na] : > 50 µg/mL

* * *

test system: murine polyomavirus; test: microbe, parasite or virus in culture; format: cell-based; conditions: Alphapolyomavirus muris, UC1, UC1B, read-out: antiviral activity (EC50) MN/RDE Toronto
measurement label: EC50

NC(N)=NC(=O)NC[C@@H](CO)OCP(=O)(O)O [Compound 10] : > 200 µg/mL
NC(=NC(=O)NC[C@@H](CO)OCP(=O)(O)O)NC=O.[Na] [Compound 3a] : 7.57 µg/mL
CCCCCCCCCCCCCCCCOCCOP1(=O)CO[C@@H](Cn2cnc(N)nc2=O)CO1 (stereo partly drawn) [Compound 12] : 0.29 µg/mL
Nc1ncn(C[C@H]2COP(=O)(O)CO2)c(=O)n1 [Compound 11] : 3.43 µg/mL
Nc1ncn(C[C@@H](CO)OCP(=O)(O)O)c(=O)n1 [Compound 3] : 1.94 µg/mL
Nc1ccn(C[C@@H](CO)OCP(=O)(O)O)c(=O)n1 [HPMPC, reference compound] : 2.76 µg/mL

Origin of the recorded values: patent US8153787B2
